B1: LOXL2 (parent)
chain: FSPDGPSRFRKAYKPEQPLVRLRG

Variants of: B1
Assay: protein stability index of a GFP-peptide fusion (GPS, HEK-293T) (PSI 1-6); higher = more stable;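 note: lentivirally expressed fusions sorted by FACS into six bins by GFP to DsRed ratio, PSI derived from sequencing read proportions per bin multiplied by bin number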
Settings: c terminus: a fixed tail appended
result.type: protein stability index
Numbers only.

Some entries whose results are on file:
variant.spec: F1M
value.observed: 2.95

variant.spec: G5Y
value.observed: 1.83

variant.spec: F1T
value.observed: 3.33

variant.spec: R23V
value.observed: 1.98

variant.spec: P15N
value.observed: 2.52

variant.spec: P18H
value.observed: 2.03

Record protein stability index for all entries; do not skip any.
1. S7L
2. P3T
3. K14T

Reply |
1. 4
2. 2.21
3. 3.59

Cited source: the supplement of paper PMC10567573
